Source: ChEMBL document CHEMBL1671699

- assay.comment: Drug level in lung transplant recipient plasma at 400 mg, po every 12 hrs after 3 hrs by LS/MS analysis
- Format: ADME, organism-based
- details: human, read-out: Drug uptake
measurement.kind: concentration at 3 h (ng/mL)
Give just the numeric value; ng/mL need not be written.

Quickly give me recorded concentration at 3 h for CC[C@@H]([C@H](C)O)n1ncn(-c2ccc(N3CCN(c4ccc(OC[C@@H]5CO[C@@](Cn6cncn6)(c6ccc(F)cc6F)C5)cc4)CC3)cc2)c1=O 1300

---

- assay.comment: Cmax in lung transplant recipient alveolar cell at 400 mg, po every 12 hrs after 12 hrs by LC/MS analysis
- Type: ADME, organism-based, Pneumocyte
- Parameters: dose 400 mg, route oral
- details: human, alveolar cells
measurement.kind: Cmax

Quickly give me recorded Cmax for CC[C@@H]([C@H](C)O)n1ncn(-c2ccc(N3CCN(c4ccc(OC[C@@H]5CO[C@@](Cn6cncn6)(c6ccc(F)cc6F)C5)cc4)CC3)cc2)c1=O [POSACONAZOLE] 55.4 µg/mL

---

- assay.comment: Drug level in lung transplant recipient alveolar cell at 400 mg, po every 12 hrs after 5 hrs by LS/MS analysis
- Type: ADME, organism-based, Pneumocyte
- details: human, alveolar cells, read-out: Drug uptake
measurement.kind: concentration at 5 h (ng/mL)
Give just the numeric value; ng/mL need not be written.

Quickly give me recorded concentration at 5 h for CC[C@@H]([C@H](C)O)n1ncn(-c2ccc(N3CCN(c4ccc(OC[C@@H]5CO[C@@](Cn6cncn6)(c6ccc(F)cc6F)C5)cc4)CC3)cc2)c1=O 31300
